System: HS 578T breast
Assay: NCI-60 one-dose screen, 48 h (100 = growth as untreated, 0 = no growth, -100 = all killed)
Conditions: 10 µM unless noted
The panel holds about 83,000 compounds, 20% with a hit somewhere; the sample as a whole holds those more often.
READOUT TYPE: growth (%)
// note: answer is a bare numeric in %

Please review the following examples before continuing.
{"columns": ["COMPOUND", "READOUT TYPE", "RESULT VALUE"],
 "data": [
  ["COC(=O)C(OC(C)=O)C(OC(C)=O)c1ccc(OC)c(OC)c1 (stereo unspecified)", "growth", 110],
  ["C/C=C(\\C)C(=O)NC1=CC[C@@]2(C)C(=CCC3C2CC[C@@]2(C)C3CC[C@@H]2C(C)N(C)C)C1=O (stereo partly specified)", "growth", 56.8],
  ["COc1cc2c(c(OC)c1OC)CCC(c1cccc(NC(=O)c3cccc(Br)c3)c1)O2 (stereo unspecified)", "growth", 84.1],
  ["CCN1C(=O)N(CC)C2Nn3c(s/c(=C\\c4ccc(OC)cc4)c3=O)=NC21 (stereo unspecified)", "growth", 43.6],
  ["COc1ccc(/C=C/c2nc(Nc3ccc(Cl)cc3)c3ccccc3n2)cc1", "growth", 70.5]
]}

Recorded growth (compound "O=C1NN(C(=O)c2ccccc2)C(c2ccc(Cl)c(Cl)c2)=C/C1=C\c1ccc([N+](=O)[O-])cc1" ): 78.3
